System: Rattus norvegicus
Test: Antihyperlipidemic activity in triton WR-1339-induced Charles-Foster rat assessed as decrease in plasma total cholesterol level at 100 mg/kg, po after 18 hrs relative to control
Assay type: functional
Design: scale not given: the % may be the effect or the level left
For each record, write down the corresponding Activity.
Answer in %, number only, no unit symbol.

q: Please provide the recorded Activity for CCOC(=O)CCCOc1ccc(C(=O)/C=C/c2cc(C(C)(C)C)c3oc(=O)c(C(=O)OCC)cc3c2)cc1 , tested on Rattus norvegicus.
a: 12

q: Please provide the recorded Activity for CCOC(=O)c1cc2cc(/C=C/C(=O)c3ccc(OC(C)(C)C(=O)OCC)cc3)cc(C)c2oc1=O , tested on Rattus norvegicus.
a: 10

q: Please provide the recorded Activity for CCOC(=O)c1cc2cc(/C=C/C(=O)c3ccc(OC(C)C(=O)OCC)cc3)cc(C(C)CC)c2oc1=O (stereo not drawn) , tested on Rattus norvegicus.
a: 10

q: Please provide the recorded Activity for CCC(C)c1cc(/C=C/C(=O)c2ccc(OC(C)(C)C(=O)O)cc2)cc2cc(C(=O)O)c(=O)oc12 (stereo not drawn) , tested on Rattus norvegicus.
a: 8

q: Please provide the recorded Activity for CCOC(=O)CCCOc1ccc(C(=O)/C=C/c2cc(C(C)CC)c3oc(=O)c(C(=O)OCC)cc3c2)cc1 (stereo not drawn) , tested on Rattus norvegicus.
a: 13

q: Please provide the recorded Activity for CCOC(=O)COc1ccc(C(=O)/C=C/c2cc(C(C)CC)c3oc(=O)c(C(=O)OCC)cc3c2)cc1 (stereo not drawn) , tested on Rattus norvegicus.
a: 11

q: Please provide the recorded Activity for Cc1ccc(C)c(OCCCC(C)(C)C(=O)O)c1 , tested on Rattus norvegicus.
a: 32

q: Please provide the recorded Activity for CCOC(=O)c1cc2cc(/C=C/C(=O)c3ccc(OC(CC)C(=O)OCC)cc3)cc(C)c2oc1=O (stereo not drawn) , tested on Rattus norvegicus.
a: 14

---

Tested on: Rattus norvegicus
Assay: Antihyperlipidemic activity in triton WR-1339-induced Charles-Foster rat assessed as decrease in plasma total cholesterol level at 100 mg/kg, po after 18 hrs relative to control
Type: functional
Set-up: scale not given: the % may be the effect or the level left
For each record, write down the corresponding Activity.
Answer in %, number only, no unit symbol.

q: I'd like to know its Activity. The molecule in question is CCOC(=O)COc1ccc(C(=O)/C=C/c2cc(C)c3oc(=O)c(C(=O)OCC)cc3c2)cc1
a: 6

q: I'd like to know its Activity. The molecule in question is CCC(C)c1cc(/C=C/C(=O)c2ccc(OCC(=O)O)cc2)cc2cc(C(=O)O)c(=O)oc12 (stereo not given)
a: 8

q: I'd like to know its Activity. The molecule in question is CCOC(=O)C(C)Oc1ccc(C(=O)/C=C/c2cc(C=O)c(O)c(C(C)CC)c2)cc1 (stereo not given)
a: 13

q: I'd like to know its Activity. The molecule in question is Cc1cc(/C=C/C(=O)c2ccc(OC(C)C(=O)O)cc2)cc2cc(C(=O)O)c(=O)oc12 (stereo not given)
a: 26

q: I'd like to know its Activity. The molecule in question is CCOC(=O)COc1ccc(C(=O)/C=C/c2cc(C(C)(C)C)c3oc(=O)c(C(=O)OCC)cc3c2)cc1
a: 13

---

System: Rattus norvegicus
Experiment: Antihyperlipidemic activity in triton WR-1339-induced Charles-Foster rat assessed as increase in post heparin lipolytic activity at 100 mg/kg, po after 18 hrs by spectrophotometric analysis relative to control
Assay type: functional
ENDPOINT: Activity (%)
Answer in %, number only, no unit symbol.

q: I'd like to know its Activity. The compound in question is CCOC(=O)c1cc2cc(/C=C/C(=O)c3ccc(OC(C)(C)C(=O)OCC)cc3)cc(C(C)CC)c2oc1=O (stereo not given)
a: 15

q: I'd like to know its Activity. The compound in question is CCOC(=O)CCCOc1ccc(C(=O)/C=C/c2cc(C)c3oc(=O)c(C(=O)OCC)cc3c2)cc1
a: 12

q: I'd like to know its Activity. The compound in question is CCOC(=O)c1cc2cc(/C=C/C(=O)c3ccc(OC(C)(C)C(=O)OCC)cc3)cc(C)c2oc1=O
a: 5

q: I'd like to know its Activity. The compound in question is CCOC(=O)c1cc2cc(/C=C/C(=O)c3ccc(OC(C)C(=O)OCC)cc3)cc(C)c2oc1=O (stereo not given)
a: 6

q: I'd like to know its Activity. The compound in question is CCOC(=O)C(C)Oc1ccc(C(=O)/C=C/c2cc(C=O)c(O)c(C(C)CC)c2)cc1 (stereo not given)
a: 5

q: I'd like to know its Activity. The compound in question is CCOC(=O)COc1ccc(C(=O)/C=C/c2cc(C(C)C)c3oc(=O)c(C(=O)OCC)cc3c2)cc1
a: 15

q: I'd like to know its Activity. The compound in question is CCOC(=O)CCCOc1ccc(C(=O)/C=C/c2cc(C(C)CC)c3oc(=O)c(C(=O)OCC)cc3c2)cc1 (stereo not given)
a: 7

q: I'd like to know its Activity. The compound in question is Cc1ccc(C)c(OCCCC(C)(C)C(=O)O)c1
a: 19

q: I'd like to know its Activity. The compound in question is CCC(C)c1cc(/C=C/C(=O)c2ccc(OCC(=O)O)cc2)cc2cc(C(=O)O)c(=O)oc12 (stereo not given)
a: 3

q: I'd like to know its Activity. The compound in question is Cc1cc(/C=C/C(=O)c2ccc(OC(C)C(=O)O)cc2)cc2cc(C(=O)O)c(=O)oc12 (stereo not given)
a: 17

q: I'd like to know its Activity. The compound in question is CC(C)c1cc(/C=C/C(=O)c2ccc(OCC(=O)O)cc2)cc2cc(C(=O)O)c(=O)oc12
a: 3

q: I'd like to know its Activity. The compound in question is CCOC(=O)c1cc2cc(/C=C/C(=O)c3ccc(OC(C)C(=O)OCC)cc3)cc(C(C)CC)c2oc1=O (stereo not given)
a: 5

q: I'd like to know its Activity. The compound in question is CCOC(=O)COc1ccc(C(=O)/C=C/c2cc(C)c3oc(=O)c(C(=O)OCC)cc3c2)cc1
a: 2

q: I'd like to know its Activity. The compound in question is CCOC(=O)C(C)Oc1ccc(C(=O)/C=C/c2cc(C)c(O)c(C=O)c2)cc1 (stereo not given)
a: 6

q: I'd like to know its Activity. The compound in question is CCC(C)c1cc(/C=C/C(=O)c2ccc(OC(C)(C)C(=O)O)cc2)cc2cc(C(=O)O)c(=O)oc12 (stereo not given)
a: 4

---

Tested on: Rattus norvegicus
Assay: Antihyperlipidemic activity in triton WR-1339-induced Charles-Foster rat assessed as increase in post heparin lipolytic activity at 100 mg/kg, po after 18 hrs by spectrophotometric analysis relative to control
Assay type: functional
For each record, write down the corresponding Activity.
Answer in %, number only, no unit symbol.

q: Please provide the recorded Activity for CCOC(=O)COc1ccc(C(=O)/C=C/c2cc(C(C)CC)c3oc(=O)c(C(=O)OCC)cc3c2)cc1 (centres undefined) , tested on Rattus norvegicus.
a: 8

q: Please provide the recorded Activity for CCOC(=O)c1cc2cc(/C=C/C(=O)c3ccc(OC(CC)C(=O)OCC)cc3)cc(C)c2oc1=O (centres undefined) , tested on Rattus norvegicus.
a: 10

q: Please provide the recorded Activity for CCOC(=O)CCCOc1ccc(C(=O)/C=C/c2cc(C(C)(C)C)c3oc(=O)c(C(=O)OCC)cc3c2)cc1 , tested on Rattus norvegicus.
a: 5

q: Please provide the recorded Activity for CCOC(=O)COc1ccc(C(=O)/C=C/c2cc(C(C)(C)C)c3oc(=O)c(C(=O)OCC)cc3c2)cc1 , tested on Rattus norvegicus.
a: 5

---

Tested on: Rattus norvegicus
Experiment: Antihyperlipidemic activity in triton WR-1339-induced Charles-Foster rat assessed as decrease in plasma total cholesterol level at 100 mg/kg, po after 18 hrs relative to control
Assay type: functional
Parameters: scale not given: the % may be the effect or the level left
For each record, write down the corresponding Activity.
Respond with a number, then the unit of measure.

q: Please provide the recorded Activity for CC(C)c1cc(/C=C/C(=O)c2ccc(OCC(=O)O)cc2)cc2cc(C(=O)O)c(=O)oc12 , tested on Rattus norvegicus.
a: 9%

q: Please provide the recorded Activity for CCOC(=O)c1cc2cc(/C=C/C(=O)c3ccc(OC(C)(C)C(=O)OCC)cc3)cc(C(C)CC)c2oc1=O (stereo unspecified) , tested on Rattus norvegicus.
a: 22%

q: Please provide the recorded Activity for CCOC(=O)CCCOc1ccc(C(=O)/C=C/c2cc(C)c3oc(=O)c(C(=O)OCC)cc3c2)cc1 , tested on Rattus norvegicus.
a: 19%

q: Please provide the recorded Activity for CCOC(=O)c1cc2cc(/C=C/C(=O)c3ccc(OC(C)C(=O)OCC)cc3)cc(C)c2oc1=O (stereo unspecified) , tested on Rattus norvegicus.
a: 10%

q: Please provide the recorded Activity for CCOC(=O)COc1ccc(C(=O)/C=C/c2cc(C(C)C)c3oc(=O)c(C(=O)OCC)cc3c2)cc1 , tested on Rattus norvegicus.
a: 21%

q: Please provide the recorded Activity for CCOC(=O)C(C)Oc1ccc(C(=O)/C=C/c2cc(C)c(O)c(C=O)c2)cc1 (stereo unspecified) , tested on Rattus norvegicus.
a: 12%
